Target: T1, O15
T1 chain: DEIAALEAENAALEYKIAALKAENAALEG
Test: two-hybrid library CCNG1;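 note: natural log of median RNA to DNA barcode read ratio; higher means stronger binding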
Recorded interaction score values for a group of binders are listed next.

// worked examples, interaction score included
{"columns": ["BINDER", "interaction score"],
 "data": [
  ["DEIAALEAENAALEYKIAALKAENAALEG [O15]", -1.57],
  ["DKNQQLKQKIQELEQENQELEWEIQELKQ [4H3858-bN]", -1.67],
  ["DEIAALEAKIAALKYKNAALKAKNAALKG [O12]", -1.36]
]}

Let us move to another entry and its interaction score.
Query: # input binder: DKNAALKAENAALEYEIAALEAEIAALEG [O1] ; wanted: its interaction score
Reply: -2.03
